# System: penicillin-resistant pneumococci
# procedure_summary: broth microdilution MIC, penicillin-resistant pneumococci
# Format: cell-based, Streptococcus pneumoniae
# measurement_parameters: 20 isolates, 5×10^5 cfu/ml
Where no end group is shown, it is not given here.
Quick reference: ER (effective range of MIC) of the listed items.

These recorded examples may help you get a feel for the data.
INSERT INTO assay_data (ordered_residues, measured_on, recorded_measurement) VALUES
  ('PHWWKWAWWHHRR [SEQ ID NO:1]', 'penicillin-resistant pneumococci', '62.5 to 250 mg/L'),
  ('KHWWKHDWWRWRR [SEQ ID NO:2]', 'penicillin-resistant pneumococci', '62.5 to 250 mg/L'),
  ('ILWWLLAWWRWPH [SEQ ID NO:3]', 'penicillin-resistant pneumococci', '>250 mg/L');

Continue with the sequence presented below.
Give the reported ER (effective range of MIC) for ILWWKWAWWRWRR [reference compound] (system: penicillin-resistant pneumococci).
62.5 to 250 mg/L

====

Quick reference: EP (effective percentage, isolates inhibited within ER) of the listed items.
# Test system: penicilin-susceptible pneumococci
# procedure_summary: broth microdilution MIC, penicilin-susceptible pneumococci
# Assay type: cell-based, Streptococcus pneumoniae
# measurement_parameters: 20 isolates
Where no end group is shown, it is not given here.
Give a bare numeral; the unit % is implied.

These recorded examples may help you get a feel for the data.
INSERT INTO assay_data (ordered_residues, recorded_measurement) VALUES
  ('ILWWLLAWWRWPH [SEQ ID NO:3]', 0),
  ('PHWWKWAWWHHRR [SEQ ID NO:1]', 80),
  ('KHWWKHDWWRWRR [SEQ ID NO:2]', 95);

Which measured EP (effective percentage, isolates inhibited within ER) value corresponds to ILWWKWAWWRWRR [reference compound] ?
65

====

# System: penicilin-intermediate pneumococci
# procedure_summary: broth microdilution MIC, penicilin-intermediate pneumococci
# Assay type: cell-based, Streptococcus pneumoniae
# measurement_parameters: 20 isolates
Where no end group is shown, it is not given here.
readout: EP (effective percentage, isolates inhibited within ER) (%)
Give a bare numeral; the unit % is implied.

INSERT INTO measurements (ordered_residues, readout_units, recorded_measurement) VALUES
  ('ILWWLLAWWRWPH [SEQ ID NO:3]', '%', 0),
  ('ILWWKWAWWRWRR [reference compound]', '%', 30),
  ('PHWWKWAWWHHRR [SEQ ID NO:1]', '%', 85);

Which measured EP (effective percentage, isolates inhibited within ER) value corresponds to KHWWKHDWWRWRR [SEQ ID NO:2] ?
95
